Source: paper PMC10163693

# assayed-target: T1, YAP1^WW2 (as used in ITC) (UniProt P46937 227-266)
# T1 construct: Yes-associated protein 1 (YAP1), second WW domain; the label YAP1^WW2 is defined as residues 227-266 in the pull-down methods; The ITC methods name only YAP1^WW2
# T1 sequence (P46937 227-266): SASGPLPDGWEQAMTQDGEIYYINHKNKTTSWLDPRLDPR
# test-description: ITC; 25 °C, PEAQ-ITC; 10 mM NF1^PPQY peptide injected (20 injections of 2 μl) into 1 mM YAP1^WW1 or YAP1^WW2; 10 mM Tris pH 8.0, 100 mM NaCl; one-site binding model
# measurement-parameters: both partners purified
observed-property: pKd
Numbers only, as −log10 of the molar value.

**Query** Field request: pKd | item: EESPPQYQTS (also called NF1 peptides; source: synthetic peptide (Scilight-Peptide, China)) [NF1^PPQY peptide (residues 2671-2680: EESPPQYQTS)]
**Result** 3.46
